Known IC50 of a selection of molecules
- TESTED ON: BCL-XL (Homo sapiens (Human))
- Sequence (Q07817 1-212): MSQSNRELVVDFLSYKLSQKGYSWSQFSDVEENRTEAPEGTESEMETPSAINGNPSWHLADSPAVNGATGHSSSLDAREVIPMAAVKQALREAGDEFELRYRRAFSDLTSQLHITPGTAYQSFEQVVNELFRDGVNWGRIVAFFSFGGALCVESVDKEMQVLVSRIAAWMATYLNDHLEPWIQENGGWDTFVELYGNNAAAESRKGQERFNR
- ASSAY PROTOCOL: Protein-protein interaction assay BCL-XL/Bad BH3 peptide (BCL-XL assay, TR-FRET)
- MEASUREMENT PARAMETERS: read-out: BCL-XL Assay IC50 (median)
Please state the figure in µM; there is no need to write the unit.

| MOLECULE | UNITS SYMBOL | IC50 |
| --- | --- | --- |
| CCc1c2c(nn1C)C(CC(C)(C)O)OCCCCn1c(C(=O)O)c(CCCOc3cccc4cc(F)ccc34)c3ccc(Cl)c-2c31 (single isomer, unassigned; enantiomer 21) [Example 54] | µM | 14.3 |
| Cc1c2c(nn1C)C(C1CC1)OCCCCn1c(C(=O)O)c(CCCOc3cccc4ccccc34)c3ccc(Cl)c-2c31 (racemic) [Example 28] | µM | 19.8 |
| COCCC1OCCCCn2c(C(=O)O)c(CCCOc3cccc4ccccc34)c3ccc(Cl)c(c32)-c2c1nn(C)c2C (racemic) | µM | 17.1 |

Exercise: Identify measured IC50 corresponding to CCc1c2c(nn1C)C(Cc1ccccc1)OCCCCn1c(C(=O)O)c(CCCOc3cccc4cc(F)ccc34)c3ccc(Cl)c-2c31 (racemic)
Solution: 13.2

Exercise: Provide measured IC50 value, entry: CCc1c2c(nn1C)C(CCOC)OCCCCn1c(C(=O)O)c(CCCOc3cccc4cc(F)ccc34)c3ccc(Cl)c-2c31 (racemic) [Example 41]
Solution: 15

====

- Tested on: SK-BR-3 cells
- ASSAY PROTOCOL: Antiproliferation assay SK-BR-3 (Assay 7)
- Format: cell-based
- MEASUREMENT PARAMETERS: Homo sapiens, SK-BR-3, 72 h, read-out: Antiproli SK-BR-3 IC50 median
- Experimental: Assessment of the Anti-Proliferative Effect of Compounds in Different Cell Lines The impact of compounds on the proliferation of different cell lines was assessed using the CellTiter-Glo® Luminescent Cell Viability reagent from Promega (G7573). In parallel, cells were plated in a reference (day 0) plate for time zero determination. […] After 72 h incubation, the treated plates were measured in the same way as the day 0 plate mentioned above. […]
MEASUREMENT TYPE: IC50 (nM)
Output spec: scalar in nM, unitless text.

Exercise: Input Cc1c2c(nn1C)C(CCN1CCOCC1)OCCCCn1c(C(=O)O)c(CCCOc3cccc4cc(F)ccc34)c3ccc(F)c-2c31 (single isomer, unassigned; enantiomer 1) , output reported IC50.
Solution: 173

====

- Test system: A2780 cells
- ASSAY PROTOCOL: Antiproliferation assay A2780 (Assay 7)
- Format: cell-based
- MEASUREMENT PARAMETERS: 72 h, CellTiter-Glo; read-out: Antiproli A2780 IC50 median
MEASUREMENT TYPE: IC50 (µM)
Express your answer in µM, writing the number without its unit.

Reference set, count: 2
| COMPOUND | UNITS SYMBOL | IC50 |
| --- | --- | --- |
| Cc1c2c(nn1C)C(CCN1CCOCC1)OCCCCn1c(C(=O)O)c(CCCOc3cccc4ccccc34)c3ccc(F)c-2c31 (stereo not shown) [Example 07] | µM | 4.08 |
| Cc1c2c(nn1C)C(CCN1CCOCC1)OCCCCn1c(C(=O)O)c(CCCOc3cccc4ccccc34)c3cccc-2c31 (stereo not shown) [Example 05] | µM | 14.4 |

Here's the next entry for you.
Exercise: Name the recorded IC50 of the item Cc1c2c(nn1C)C(CCN1CCOCC1)OCCCCn1c(C(=O)O)c(CCCOc3cccc4ccccc34)c3cccc-2c31 (stereo not shown) [Example 04] in your answer.
Solution: 14.3
